system-under-test: Lysophosphatidic acid receptor 3 (Homo sapiens)
Sequence (Q9UBY5 whole entry): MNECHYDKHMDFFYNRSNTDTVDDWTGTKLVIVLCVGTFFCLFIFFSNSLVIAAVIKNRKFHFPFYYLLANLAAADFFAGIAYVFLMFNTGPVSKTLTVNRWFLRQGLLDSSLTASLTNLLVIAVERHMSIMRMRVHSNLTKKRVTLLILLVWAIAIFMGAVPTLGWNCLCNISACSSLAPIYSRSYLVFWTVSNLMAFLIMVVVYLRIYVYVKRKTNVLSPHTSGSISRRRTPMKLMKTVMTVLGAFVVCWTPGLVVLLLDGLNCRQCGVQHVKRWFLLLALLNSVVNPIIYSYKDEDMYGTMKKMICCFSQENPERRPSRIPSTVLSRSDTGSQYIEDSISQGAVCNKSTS
method: In vitro antagonism of LPA-evoked [35S]GTP-gamma-S binding to lysophosphatidic acid receptor 3 in HEK293T cell lines
experimental-endpoint: IC50 (nM)

CCCCCCCC/C=C\CCCCCCCC(=O)N[C@@H](COP(=O)(O)O)Cc1ccc(OCC)cc1 :: 6410
CCCCCCCC/C=C\CCCCCCCC(=O)N[C@@H](COP(=O)(O)O)Cc1ccc(OC(=O)c2cc(OC)c(OC)c(OC)c2)cc1 :: 427
CCCCCCCC/C=C\CCCCCCCC(=O)N[C@H](COP(=O)(O)O)Cc1ccc(OCc2cccc(OC)c2)cc1 :: 642
CCCCCCCC/C=C\CCCCCCCC(=O)N[C@@H](COP(=O)(O)O)Cc1ccc(OCc2cccc(OC)c2)cc1 :: 35.6

I = CCCCCCCC/C=C\CCCCCCCC(=O)N[C@@H](COP(=O)(O)O)Cc1ccc(Oc2cc3ccccc3[nH]2)cc1
II = CCCCCCCC/C=C\CCCCCCCC(=O)N[C@H](COP(=O)(O)O)Cc1ccc(OCC)cc1
-- ask I need your help: which of the pair I , II has higher IC50? Refer to your chosen item by its label in the answer.
-- reply II

----------
system-under-test: Lysophosphatidic acid receptor 3 (Homo sapiens)
Sequence (Q9UBY5 whole entry): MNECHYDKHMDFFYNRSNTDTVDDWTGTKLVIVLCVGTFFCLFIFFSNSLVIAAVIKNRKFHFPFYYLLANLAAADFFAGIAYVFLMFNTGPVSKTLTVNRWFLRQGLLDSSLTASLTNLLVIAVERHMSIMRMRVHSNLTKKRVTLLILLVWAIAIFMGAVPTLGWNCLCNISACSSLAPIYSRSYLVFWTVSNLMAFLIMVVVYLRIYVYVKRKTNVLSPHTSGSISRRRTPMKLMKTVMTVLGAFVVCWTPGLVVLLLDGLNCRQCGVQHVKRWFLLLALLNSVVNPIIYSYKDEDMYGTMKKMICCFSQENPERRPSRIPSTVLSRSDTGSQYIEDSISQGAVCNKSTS
method: In vitro antagonism of LPA-evoked [35S]GTP-gamma-S binding to lysophosphatidic acid receptor 3 in HEK293T cell lines
Assay type: functional, cell-based, HEK-293T
pIC50: −log10 of the molar value.
experimental-endpoint: pIC50

CCCCCCCC/C=C\CCCCCCCC(=O)N[C@H](COP(=O)(O)O)Cc1ccc(OCCC(C)C)cc1 :: 5.23
CCCCCCCC/C=C\CCCCCCCC(=O)NC(COP(=O)(O)O)Cc1ccc(OCc2ccccc2)cc1 (stereo not drawn) :: 5.19

a = CCCCCCCC/C=C\CCCCCCCC(=O)N[C@@H](COP(=O)(O)O)Cc1ccc(OC2Cc3ccccc3C2)cc1
b = CCCCCCCCCCCCCCCC(=O)NC(COP(=O)(O)O)Cc1ccc(OCc2cccc(OC)c2)cc1 (stereo not drawn)
c = CCCCCCCC/C=C\CCCCCCCC(=O)N[C@H](COP(=O)(O)O)Cc1ccc(OCc2ccccn2)cc1
-- ask Rank entries according to their pIC50, from the largest number down. Give your ranking as a list of the labels in the requested order.
-- reply c, a, b
(c: 6.03, a: 5.64, b: 5.14)
